# experimental_details: qHTS of pediatric cancer cell lines to identify multiple opportunities for drug repurposing: Confirmatory screen for control Hh wild type fibroblast cells (AID 1347121); note: nearly all actives have a fitted effect of over 70% in size
# condition_parameters: viability qHTS; series mostly up to 45.9 µM
# Procedure: Drug repurposing or repositioning has been offered as a strategy for drug development in oncology programs. […] [1] Shen, M et al. Quantitative high-throughput phenotypic screening of pediatric cancer cell lines identifies multiple opportunities for drug repurposing. […] Cells were assayed in growth media at a density of 500-1,000 cells/well. […] After a 15 min incubation at room temperature, samples were analyzed for luminescence intensity using a ViewLux High-throughput CCD imager equipped with clear filters.
Inconclusive results are not listed. The source made the active and inactive calls. Calls come from the whole dose curve; as a rule, active = well fitted cell-killing curve with a large enough effect; inconclusive = small, poorly fitted or top-dose-only effect, or effect the other way; inactive = flat fitted curve, though single readings scatter.
Permitted responses: yes = active, no = inactive

Worked cases, answers included:
O=C(O)c1ccc2cc(-c3ccc(O)c(C45CC6CC(CC(C6)C4)C5)c3)ccc2c1 :: no
COC(=O)Nc1nc2ccc(C(=O)c3ccc(F)cc3)cc2[nH]1 :: no
Cc1cnc(Nc2ccc(F)cc2Cl)nc1-c1c[nH]c(C(=O)N[C@H](CO)c2cccc(Cl)c2)c1 :: no
C=CC(=O)Nc1cccc(Oc2nc(Nc3ccc(N4CCN(C)CC4)cc3OC)ncc2Cl)c1 :: no
COc1ccc(-c2cc3c(C)nc(N)nc3n(C3CCC(OCCO)CC3)c2=O)cn1 (stereo not drawn) :: no
CN[C@H]1CCc2cc(OC)c(OC)c(OC)c2-c2ccc(OC)c(=O)cc21 :: no
OCCCNc1cc(-c2ccnc(Nc3cccc(Cl)c3)n2)ccn1 :: no
O=C(Nc1cn[nH]c1-c1nc2ccc(CN3CCOCC3)cc2[nH]1)NC1CC1 :: no

Next compound, please.
Can you look up the reported call for CC1(C)OC2=C(C(=O)c3ccccc3C2=O)[C@H](NCc2ccccc2)[C@H]1O for me?
yes
